Target: Transient receptor potential cation channel subfamily A member 1 (Homo sapiens, UniProt O75762)
Sequence (O75762 whole entry): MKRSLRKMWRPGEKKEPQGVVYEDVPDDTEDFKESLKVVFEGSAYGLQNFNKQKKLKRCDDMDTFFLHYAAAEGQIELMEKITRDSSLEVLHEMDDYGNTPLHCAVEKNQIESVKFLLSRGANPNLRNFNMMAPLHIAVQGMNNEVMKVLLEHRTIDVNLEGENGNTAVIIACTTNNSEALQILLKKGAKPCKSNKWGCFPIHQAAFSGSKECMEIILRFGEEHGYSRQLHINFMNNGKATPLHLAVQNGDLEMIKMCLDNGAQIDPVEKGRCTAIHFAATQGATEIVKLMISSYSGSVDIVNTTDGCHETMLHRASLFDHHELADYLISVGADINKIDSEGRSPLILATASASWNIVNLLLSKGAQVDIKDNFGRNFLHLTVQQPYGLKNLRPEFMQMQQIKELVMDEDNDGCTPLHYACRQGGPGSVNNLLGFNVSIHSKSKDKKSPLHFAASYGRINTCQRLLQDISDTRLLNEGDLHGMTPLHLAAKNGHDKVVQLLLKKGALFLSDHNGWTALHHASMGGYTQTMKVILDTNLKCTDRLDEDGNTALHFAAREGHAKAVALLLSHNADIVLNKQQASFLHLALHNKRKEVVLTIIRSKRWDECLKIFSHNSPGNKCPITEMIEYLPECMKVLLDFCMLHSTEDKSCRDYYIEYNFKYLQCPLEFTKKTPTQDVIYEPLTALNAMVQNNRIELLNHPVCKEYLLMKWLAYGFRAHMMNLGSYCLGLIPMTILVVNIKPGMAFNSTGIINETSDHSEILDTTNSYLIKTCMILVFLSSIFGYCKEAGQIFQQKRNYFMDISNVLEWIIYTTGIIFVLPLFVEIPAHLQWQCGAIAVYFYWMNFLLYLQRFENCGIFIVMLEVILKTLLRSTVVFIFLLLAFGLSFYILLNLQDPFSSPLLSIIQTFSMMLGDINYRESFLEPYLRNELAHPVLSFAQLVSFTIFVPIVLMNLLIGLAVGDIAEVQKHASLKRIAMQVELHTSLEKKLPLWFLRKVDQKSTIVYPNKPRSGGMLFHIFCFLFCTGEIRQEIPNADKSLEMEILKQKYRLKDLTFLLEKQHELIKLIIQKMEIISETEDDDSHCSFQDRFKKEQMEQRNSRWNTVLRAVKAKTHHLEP
Field: pIC50. Provide a value for each of the compounds that follow.
Convention used: pIC50 is expressed as -log10 of the molar concentration.

Enquiry: Using the record for Cc1c(=O)n(Cc2ccccc2)c(=O)n2cc(C(=O)N3CCC(Oc4ccccc4F)CC3)sc12 , report its pIC50.
Return: 6.70

Enquiry: Using the record for Cc1c(=O)n(Cc2ccccc2)c(=O)n2cc(C(=O)NCc3cccnc3)sc12 , report its pIC50.
Return: 5.80

Enquiry: Using the record for Cc1c(=O)n(Cc2ccccc2)c(=O)n2cc(C(=O)NCc3ccccn3)sc12 , report its pIC50.
Return: 5.46

Enquiry: Using the record for Cc1c(=O)n(Cc2ccccc2)c(=O)n2cc(C(=O)N3CC[C@@H](Oc4ccccc4C(F)(F)F)C3)sc12 , report its pIC50.
Return: 7.00

Enquiry: Using the record for COc1cc(CNC(=O)c2cn3c(=O)n(Cc4ccccc4)c(=O)c(C)c3s2)ccn1 , report its pIC50.
Return: 5.76

Enquiry: Using the record for Cc1c(=O)n(Cc2ccccc2)c(=O)n2cc(C(=O)NCc3ccc(Cl)cc3)sc12 , report its pIC50.
Return: 5.65

Enquiry: Using the record for Cc1ccc(CNC(=O)c2cn3c(=O)n(Cc4ccccc4)c(=O)c(C)c3s2)cc1 , report its pIC50.
Return: 5.86

Enquiry: Using the record for Cc1c(=O)n(Cc2ccccc2)c(=O)n2cc(C(=O)NCc3ccc4nsnc4c3)sc12 , report its pIC50.
Return: 5.84

Enquiry: Using the record for Cc1c(=O)n(Cc2ccccc2)c(=O)n2cc(C(=O)NCc3ccc(F)cc3)sc12 , report its pIC50.
Return: 5.65

Enquiry: Using the record for Cc1c(=O)n(Cc2ccccc2)c(=O)n2cc(C(=O)N3CCC(c4ccccc4F)CC3)sc12 , report its pIC50.
Return: 6.40
